Recorded values, source patent US11434242B2.

Measured concentration at 2 h by item
Test: Evaluation of pharmacokinetic profile: plasma and brain concentrations after oral dosing
Format: in vivo, Wistar rats
Settings: male, Wistar; rat, 10 mg/kg po, plasma, 2 h post-dosing; read-out: Cpl (ng/mL) at 2 h

COMPOUND: Cl.Fc1cc(F)c(F)c([C@H]2Cc3c(CCN4CCOCC4)[nH]c(=S)n3C2)c1F [Example 199, Hydrochloride]
concentration at 2 h, ng/mL: 777
--
COMPOUND: Cn1c(CC(=O)N[C@@H]2CCOC2)c2n(c1=S)C[C@H](c1c(F)ccc(Br)c1F)C2
concentration at 2 h, ng/mL: 1310
--
COMPOUND: O=C(Cc1[nH]c(=S)n2c1[C@@H]1C[C@]1(c1cc(Cl)ccc1F)C2)N1CCOCC1
concentration at 2 h, ng/mL: 429
--
COMPOUND: NC(=O)Cc1[nH]c(=S)n2c1[C@@H]1C[C@]1(c1cc(Cl)ccc1F)C2
concentration at 2 h, ng/mL: 1130

* * *

Biological target: Dopamine beta hydroxylase (Homo sapiens)
Construct: 125 μl of plasma; tissue Instituto Português do Sangue Transplantação; host or cells: human plasma from healthy donors
Sequence (P09172 40-617 limits assumed): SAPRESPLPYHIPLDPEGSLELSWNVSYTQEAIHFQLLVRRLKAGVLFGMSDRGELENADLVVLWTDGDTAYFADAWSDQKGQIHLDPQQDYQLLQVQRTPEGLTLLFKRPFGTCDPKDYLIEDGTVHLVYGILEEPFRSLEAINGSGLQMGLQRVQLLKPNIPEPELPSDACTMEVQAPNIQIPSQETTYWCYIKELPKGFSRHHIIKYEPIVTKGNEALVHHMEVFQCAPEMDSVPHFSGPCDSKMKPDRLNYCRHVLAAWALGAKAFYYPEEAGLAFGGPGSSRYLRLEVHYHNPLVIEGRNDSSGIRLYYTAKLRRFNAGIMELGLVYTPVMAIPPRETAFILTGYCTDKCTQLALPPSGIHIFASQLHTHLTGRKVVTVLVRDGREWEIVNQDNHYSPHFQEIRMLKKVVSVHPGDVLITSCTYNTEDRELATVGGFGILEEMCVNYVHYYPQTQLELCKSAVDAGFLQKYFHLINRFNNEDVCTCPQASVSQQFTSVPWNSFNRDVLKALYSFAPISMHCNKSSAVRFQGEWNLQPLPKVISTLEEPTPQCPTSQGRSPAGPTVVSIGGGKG
Experiment: Dopamine beta hydroxylase activity in human plasma
Format: biochemical
Settings: inhibitor 0.01 μM
MEASUREMENT_LABEL: Plasma (0.01 μM), activity in % of control

TEST_SMILES: [2H]C([2H])([2H])n1c(CC(=O)NC2CCOCC2)c2n(c1=S)C[C@H](c1c(F)ccc(Cl)c1F)C2
RECORDED_RESULT: 33.7 % of control
--
TEST_SMILES: Cn1c(CC(=O)Nc2ccccn2)c2n(c1=S)C[C@H](c1c(F)ccc(Cl)c1F)C2
RECORDED_RESULT: 84.2 % of control
--
TEST_SMILES: Cc1nnc(NC(=O)Cc2c3n(c(=S)n2C)C[C@H](c2c(F)ccc(Cl)c2F)C3)o1
RECORDED_RESULT: 72.3 % of control
--
TEST_SMILES: CC(C)NC(=O)Cc1c2n(c(=S)n1C)C[C@@]1(c3cc(Cl)ccc3F)C[C@@H]21
RECORDED_RESULT: 79.3 % of control

* * *

Biological target: Dopamine beta hydroxylase (Homo sapiens)
Construct: 125 μl of plasma; tissue Instituto Português do Sangue Transplantação; host or cells: human plasma from healthy donors
Test: Dopamine beta hydroxylase activity in human plasma
Format: biochemical
Conditions: inhibitor 0.01 μM
MEASUREMENT_LABEL: Plasma (0.01 μM), activity in % of control

MOLECULE: O=C(Cc1[nH]c(=S)n2c1C[C@H](c1c(F)c(F)cc(F)c1F)C2)NC1CCCCC1O (stereo partly drawn)
RECORDED_RESULT: 72.5 % of control
//
MOLECULE: Cn1c(CC(=O)N[C@@H]2CCOC2)c2n(c1=S)C[C@H](c1cc(F)cc(F)c1)C2
RECORDED_RESULT: 78.6 % of control
//
MOLECULE: Cn1c(CC(=O)Nc2nncs2)c2n(c1=S)C[C@H](c1c(F)ccc(Cl)c1F)C2
RECORDED_RESULT: 55.8 % of control

* * *

Molecular target: Dopamine beta hydroxylase (Homo sapiens)
Construct: 125 μl of plasma; tissue Instituto Português do Sangue Transplantação; host or cells: human plasma from healthy donors
Experiment: Dopamine beta hydroxylase activity in human plasma
Format: biochemical
Conditions: inhibitor 0.01 μM
MEASUREMENT_LABEL: Plasma (0.01 μM), activity in % of control

COMPOUND: O=C(Cc1[nH]c(=S)n2c1C[C@H](c1c(F)c(F)cc(F)c1F)C2)NC1CCOCC1
RECORDED_RESULT: 102.0 % of control
//
COMPOUND: O=C(Cc1[nH]c(=S)n2c1C[C@H](c1c(F)ccc(Br)c1F)C2)N1CCC(F)(F)CC1
RECORDED_RESULT: 74.5 % of control
//
COMPOUND: O=C(CCc1[nH]c(=S)n2c1C[C@H](c1c(F)c(F)cc(F)c1F)C2)N1CCCC1
RECORDED_RESULT: 26.5 % of control
//
COMPOUND: Cl.Fc1ccc(Cl)c(F)c1[C@@H]1Cc2c(CCc3cccnc3)[nH]c(=S)n2C1
RECORDED_RESULT: 74.3 % of control
//
COMPOUND: Cn1c(CC(=O)N[C@H]2CCOC2)c2n(c1=S)C[C@@H](c1c(F)ccc(F)c1F)C2
RECORDED_RESULT: 87.1 % of control
//
COMPOUND: CN(C(=O)Cc1c2n(c(=S)n1C)C[C@@]1(c3cc(Cl)ccc3F)C[C@@H]21)C1CCOC1 (stereo partly drawn)
RECORDED_RESULT: 72.8 % of control
//
COMPOUND: Cn1c(CC(=O)NC2COC2)c2n(c1=S)C[C@@]1(c3c(F)ccc(Cl)c3F)C[C@@H]21
RECORDED_RESULT: 31.9 % of control
//
COMPOUND: O=C(Cc1[nH]c(=S)n2c1C[C@@H](c1c(F)ccc(Cl)c1F)C2)NCCn1cccn1
RECORDED_RESULT: 87.2 % of control
//
COMPOUND: F.Fc1ccc(Cl)cc1[C@]12C[C@H]1c1c(CCN3CCCCC3)[nH]c(=S)n1C2
RECORDED_RESULT: 82.9 % of control
//
COMPOUND: Cl.Cn1c(CC(=O)N2CCNCC2)c2n(c1=S)C[C@@]1(c3cc(Br)ccc3F)C[C@@H]21
RECORDED_RESULT: 89.7 % of control
//
COMPOUND: Cn1c(CC(=O)Nc2ncco2)c2n(c1=S)C[C@@H](c1c(F)c(F)cc(F)c1F)C2
RECORDED_RESULT: 43.4 % of control
//
COMPOUND: CC(C)(C)OC(=O)N1CCC[C@@H]1CNC(=O)Cc1[nH]c(=S)n2c1C[C@@H](c1c(F)ccc(Br)c1F)C2
RECORDED_RESULT: 70.8 % of control
//
COMPOUND: Cn1c(CC(=O)NC2COC2)c2n(c1=S)C[C@H](c1c(F)ccc(Br)c1F)C2
RECORDED_RESULT: 42.4 % of control
//
COMPOUND: CN(C(=O)Cc1c2n(c(=S)n1C)C[C@@]1(c3c(F)ccc(Cl)c3F)C[C@@H]21)[C@@H]1CCOC1
RECORDED_RESULT: 27.9 % of control
//
COMPOUND: CN1CCN(C(=O)Cc2c3n(c(=S)n2C)C[C@@]2(c4cc(Cl)ccc4F)C[C@@H]32)CC1
RECORDED_RESULT: 96.6 % of control
